Origin of values: patent EP4640678A1

- STUDY_SYSTEM: human FXla (Homo sapiens)
- Sequence (P03951 388-625 limits assumed): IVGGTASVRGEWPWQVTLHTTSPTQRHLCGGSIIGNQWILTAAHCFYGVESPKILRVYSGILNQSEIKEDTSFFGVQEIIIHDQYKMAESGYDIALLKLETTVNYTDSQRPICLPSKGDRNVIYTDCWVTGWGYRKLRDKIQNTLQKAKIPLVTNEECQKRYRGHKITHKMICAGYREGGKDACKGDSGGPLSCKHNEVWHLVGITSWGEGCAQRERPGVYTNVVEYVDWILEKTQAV
- Sequence (P03951 19-387 partner limits assumed): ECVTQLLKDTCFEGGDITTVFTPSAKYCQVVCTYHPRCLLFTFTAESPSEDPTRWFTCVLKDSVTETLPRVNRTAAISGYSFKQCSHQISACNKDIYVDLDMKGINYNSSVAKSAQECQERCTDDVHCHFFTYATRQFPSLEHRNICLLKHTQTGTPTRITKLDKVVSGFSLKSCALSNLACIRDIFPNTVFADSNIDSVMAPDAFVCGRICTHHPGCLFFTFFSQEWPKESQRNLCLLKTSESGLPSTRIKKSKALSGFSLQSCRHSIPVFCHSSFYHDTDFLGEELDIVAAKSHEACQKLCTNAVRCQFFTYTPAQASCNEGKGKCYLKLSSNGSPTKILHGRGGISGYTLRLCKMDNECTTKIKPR
pIC50: −log10 of the molar value.
QUANTITY_MEASURED: pIC50

* [2H]C([2H])([2H])Oc1cn([C@@H](CC)C(=O)Nc2ccc(C(N)=O)c(Cl)c2)c(=O)cc1-c1cc(Cl)ccc1-n1cc(C(F)(F)F)nn1 | 8.37
* [2H]C([2H])([2H])Oc1cn([C@@H](CC)C(=O)Nc2ccc(C(=O)NC)c(F)c2)c(=O)cc1-c1cc(Cl)ccc1-n1cc(C(F)(F)F)nn1 | 8.73
* CC[C@@H](C(=O)Nc1ccc(C(=O)NC)c(OC)c1)n1cc(OC)c(-c2cc(Cl)ccc2-n2cc(C(F)(F)F)nn2)cc1=O | 8.04
* CC[C@@H](C(=O)Nc1ccc(C(N)=O)cc1F)n1cc(OC)c(-c2cc(Cl)ccc2-n2cc(C(F)(F)F)nn2)cc1=O | 7.59
